Listed here: compounds with reported Kinact for Helicobacter pylori.
One number for each entry, in nM.

• CC(C)(C)c1ccc(S(=O)(=O)NCCc2ccc(S(N)(=O)=O)cc2)cc1 = 27
• CC(=O)/N=c1/sc(S(N)(=O)=O)nn1C = 225
• CC(C)(C)c1ccc(C(=O)Nc2cccc(S(N)(=O)=O)c2)cc1 = 316
• Nc1ccc(S(N)(=O)=O)cc1I = 510
• Nc1ccc(S(N)(=O)=O)cc1Br = 452

For every item in the list below, what is its measured Kinact?
1. Nc1ccc(S(N)(=O)=O)cc1Cl
2. CCN[C@H]1CN(CCCOC)S(=O)(=O)c2sc(S(N)(=O)=O)cc21
3. NS(=O)(=O)c1ccc(C(=O)O)cc1
4. Nc1ccc(S(=O)(=O)Nc2nnc(S(N)(=O)=O)s2)cc1
5. Nc1ccccc1S(N)(=O)=O

378
210
1050
268
426

For every item in the list below, what is its measured Kinact?
1. CC(C)(C)c1ccc(C(=O)NCCc2ccc(S(N)(=O)=O)cc2)cc1
2. CC(C)(C)c1ccc(S(=O)(=O)Nc2ccccc2S(N)(=O)=O)cc1
3. NCc1ccc(S(N)(=O)=O)cc1
4. CC(C)(C)c1ccc(C(=O)Nc2ccc(S(N)(=O)=O)cc2)cc1
5. Nc1ccc(S(=O)(=O)NCCc2ccc(S(N)(=O)=O)cc2)cc1
6. CC(C)(C)c1ccc(C(=O)Nc2nnc(S(N)(=O)=O)s2)cc1

1: 62; 2: 640; 3: 873; 4: 79; 5: 114; 6: 13

For every item in the list below, what is its measured Kinact?
1. CC(C)(C)c1ccc(S(=O)(=O)Nc2cccc(S(N)(=O)=O)c2)cc1
2. Nc1nccc(Nc2ccc(S(N)(=O)=O)cc2)n1
3. CC(C)(C)c1ccc(C(=O)NCc2ccc(S(N)(=O)=O)cc2)cc1
4. Cc1ccc(S(N)(=O)=O)cc1
5. CC(C)(C)c1ccc(C(=O)Nc2ccccc2S(N)(=O)=O)cc1
6. CC(C)(C)c1ccc(S(=O)(=O)NCc2ccc(S(N)(=O)=O)cc2)cc1
7. CC(C)(C)c1ccc(S(=O)(=O)Nc2ccc(S(N)(=O)=O)cc2)cc1

[318, 84, 539, 430, 539, 31, 60]

For every item in the list below, what is its measured Kinact?
1. NS(=O)(=O)c1ccc(CO)cc1
2. Nc1ccc(S(N)(=O)=O)cc1F

1: 876; 2: 1230

---

Hi there, I'd appreciate the recorded Kinact for every entry that follows.
Tested on: Helicobacter pylori
Give bare numbers, in nM.

Solved cases below.
- Cn1nc(S(N)(=O)=O)sc1=N: 549
- Nc1ccc(S(=O)(=O)NCc2ccc(S(N)(=O)=O)cc2)cc1: 131

Continue with the molecule presented below.
Which measured Kinact belongs to "CC(C)(C)c1ccc(S(=O)(=O)Nc2nnc(S(N)(=O)=O)s2)cc1" , tested on Helicobacter pylori?
12

---

System: Helicobacter pylori
Labelling: Kinact reported below 200 nM becomes rule met; at or above becomes rule not met.

• Nc1ccc(S(N)(=O)=O)cc1Cl = rule not met
• CC(C)(C)c1ccc(C(=O)NCc2ccc(S(N)(=O)=O)cc2)cc1 = rule met
• NS(=O)(=O)c1nnc(-c2ccccc2Cl)s1 = rule met
• Nc1ccc(S(=O)(=O)NCc2ccc(S(N)(=O)=O)cc2)cc1 = rule met
• CC(C)(C)c1ccc(C(=O)NCCc2ccc(S(N)(=O)=O)cc2)cc1 = rule met

Strictly below 200 nM in Kinact? "CC(C)(C)c1ccc(S(=O)(=O)NCCc2ccc(S(N)(=O)=O)cc2)cc1"
rule met

Strictly below 200 nM in Kinact? "CC(C)(C)c1ccc(C(=O)Nc2nnc(S(N)(=O)=O)s2)cc1"
rule met

Strictly below 200 nM in Kinact? "CC(C)(C)c1ccc(S(=O)(=O)NCc2ccc(S(N)(=O)=O)cc2)cc1"
rule met

Strictly below 200 nM in Kinact? "CC(C)(C)c1ccc(C(=O)Nc2ccc(S(N)(=O)=O)cc2)cc1"
rule met

Strictly below 200 nM in Kinact? "CC(C)(C)c1ccc(S(=O)(=O)Nc2ccccc2S(N)(=O)=O)cc1"
rule not met

Strictly below 200 nM in Kinact? "CC(C)(C)c1ccc(C(=O)Nc2cccc(S(N)(=O)=O)c2)cc1"
rule not met

---

Listed here: molecules with reported Kinact for Helicobacter pylori.
Numbers only, in nM.

- Nc1ccc(S(=O)(=O)Nc2nnc(S(N)(=O)=O)s2)cc1: 64
- CCN[C@H]1CN(CCCOC)S(=O)(=O)c2sc(S(N)(=O)=O)cc21: 128
- NS(=O)(=O)c1ccc(CO)cc1: 236

For every item in the list below, what is its measured Kinact?
1. CC(=O)/N=c1/sc(S(N)(=O)=O)nn1C
2. NCc1ccc(S(N)(=O)=O)cc1
3. CC(C)(C)c1ccc(C(=O)Nc2ccccc2S(N)(=O)=O)cc1
4. Nc1ccc(S(N)(=O)=O)cc1Br

[176, 2360, 23500, 1240]

For every item in the list below, what is its measured Kinact?
1. NS(=O)(=O)c1ccc(C(=O)O)cc1
2. CC(C)(C)c1ccc(S(=O)(=O)Nc2ccc(S(N)(=O)=O)cc2)cc1
3. Nc1ccc(S(N)(=O)=O)cc1F
4. CC(C)(C)c1ccc(S(=O)(=O)Nc2cccc(S(N)(=O)=O)c2)cc1
5. Nc1nccc(Nc2ccc(S(N)(=O)=O)cc2)n1

450
150
1360
213
38
